Values were extracted from PubChem BioAssay AID811.

Target: Toll-like receptor 4 (Homo sapiens) (UniProt O00206)
Sequence (O00206 whole entry, looked up): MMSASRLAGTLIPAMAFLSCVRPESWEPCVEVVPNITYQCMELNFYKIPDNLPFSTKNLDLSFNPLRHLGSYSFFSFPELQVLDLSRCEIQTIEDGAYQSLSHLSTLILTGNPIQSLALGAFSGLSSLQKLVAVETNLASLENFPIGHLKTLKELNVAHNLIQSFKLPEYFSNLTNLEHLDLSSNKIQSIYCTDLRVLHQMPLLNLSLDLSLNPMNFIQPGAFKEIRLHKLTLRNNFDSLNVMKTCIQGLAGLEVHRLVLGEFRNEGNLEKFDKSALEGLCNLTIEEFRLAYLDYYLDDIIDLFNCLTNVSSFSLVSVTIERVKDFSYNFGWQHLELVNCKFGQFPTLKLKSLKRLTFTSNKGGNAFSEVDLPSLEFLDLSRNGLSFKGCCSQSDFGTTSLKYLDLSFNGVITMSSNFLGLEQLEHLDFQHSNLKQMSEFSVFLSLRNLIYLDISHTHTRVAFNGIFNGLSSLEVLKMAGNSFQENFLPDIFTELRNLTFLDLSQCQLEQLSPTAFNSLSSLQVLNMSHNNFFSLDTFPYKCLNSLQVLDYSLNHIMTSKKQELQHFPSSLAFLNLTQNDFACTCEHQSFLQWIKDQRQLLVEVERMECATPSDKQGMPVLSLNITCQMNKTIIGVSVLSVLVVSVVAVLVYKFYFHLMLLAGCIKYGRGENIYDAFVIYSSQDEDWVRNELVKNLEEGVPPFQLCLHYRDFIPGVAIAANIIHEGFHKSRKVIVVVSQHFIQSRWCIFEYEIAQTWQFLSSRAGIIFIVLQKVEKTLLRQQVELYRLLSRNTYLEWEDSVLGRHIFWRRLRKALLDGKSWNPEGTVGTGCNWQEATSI
Experiment: inhibitors of human TLR4-MyD88 binding (AID 811)
Conditions: Cell-based TLR4-MyD88 binding inhibition assay; at 10 µM; active compounds read high
About 10 (0.06%) of roughly 16,000 compounds were called active. This is one part of a sample in which actives are shown more often than they occur.
Parameter inhibition: see the listing below.
Assay endpoint: inhibition (%)

compound=O=C(Nc1ccccc1N1CCOCC1)C1CCN(c2nccc(C(F)(F)F)n2)CC1 endpoint_result=1.1
compound=CNC(=O)c1ccccc1I endpoint_result=-1.84
compound=CCOC(=O)c1ccc2nc(C(F)(F)F)cc(N3CCN(Cc4ccccc4)CC3)c2c1 endpoint_result=3.69
compound="CC(=O)OCC(=O)[C@@]1(O)[C@H](C)CC2C3CCC4=CC(=O)C=CC4(C)C3=CCC21C (stereo partly drawn)" endpoint_result=-5.02
compound=CCc1ccnc(NS(=O)(=O)c2ccc3c(c2)OCCO3)c1 endpoint_result=-7.82
compound=Fc1cccc(Cl)c1CSc1nccn1-c1cccnc1 endpoint_result=5.59
compound=O=c1[nH]c2c(=O)[nH]c(=S)[nH]c2nc1/C=C(\O)c1ccccc1 endpoint_result=-4.76
compound=CS(=O)(=O)c1ccc(C(=O)Nc2cccc(Cl)c2)cc1 endpoint_result=-0.58
